assay name: Cynomolgus monkey tolerability, hematology (Example 34)
Type: in vivo, cynomolgus monkeys
condition label: cynomolgus monkey, in vivo, sc, 35 mg/kg
test readout: MCHC (g/dL)
Write down the numeric answer in g/dL and omit the unit.

# count of solved cases: 5
[[record]]
substance = "1198728 (TATTAGAGTATGTGGC; modified gapmer, further chemistry not given here) [compound 1198728]"
test_readout = "MCHC"
units_text = "g/dL"
recorded_measurement = 29

[[record]]
substance = "1198440 (AAGTGTATGTCAGAAG; cEt, 2'-MOE, 5-methylcytosine, phosphorothioate modifications, further chemistry not given here) [compound 1198440]"
test_readout = "MCHC"
units_text = "g/dL"
recorded_measurement = 29

[[record]]
substance = "1198623 (CTAAGTAAGGTTTCCC; modified gapmer, further chemistry not given here) [compound 1198623]"
test_readout = "MCHC"
units_text = "g/dL"
recorded_measurement = 30

[[record]]
substance = "1076453 (GTAATATTGCAATCTG; 3-10-3 cEt gapmer, further chemistry not given here) [compound 1076453]"
test_readout = "MCHC"
units_text = "g/dL"
recorded_measurement = 29

[[record]]
substance = "1198605 (GTAATATTGCAATCTG; modified gapmer, further chemistry not given here) [compound 1198605]"
test_readout = "MCHC"
units_text = "g/dL"
recorded_measurement = 29


Kindly consider the entry below.
The reported MCHC of the substance 958499 (ATTAGAGTATGTGGCA; 3-10-3 cEt gapmer, further chemistry not given here) [compound 958499] was 29

* * *

Tested on: Yap1 mRNA
assay name: Antisense inhibition of human Yap1 in A-431 cells by cEt gapmers, single dose (Example 2, RTS4814)
Type: cell-based
condition label: Table 25; Yap1 mRNA as percent of untreated control; 3-10-3 cEt gapmers targeting SEQ ID NO.: 1, and 2
Description: Modified oligonucleotides were designed to target a Yap1 nucleic acid and were tested for their effect on Yap1 mRNA level in vitro. The modified oligonucleotides were tested in a series of experiments that had similar culture conditions. […] After a treatment period of approximately 48 hours, RNA was isolated from the cells and Yap1 mRNA levels were measured by quantitative real-time RTPCR. […] Yap1 mRNA levels were normalized to total RNA content, as measured by RIBOGREEN®. […]
Strand notation (5' to 3'): a small letter for the sugar, then the base; units joined by * are phosphorothioate-linked, units joined directly phosphodiester-linked; [ ] holds rarer units or linkages, { } end groups; capitals alone tell only the bases. k = constrained ethyl (cEt); [5mC] = 5-methylcytosine; d = 2'-deoxy (DNA)
Outcome: Yes for YAP1 (% UTC) of at least 30 % UTC; No for anything lower.

Worked set:
[[record]]
substance = "1076491 (antisense kA*kG*k[5mC]*d[5mC]*dA*dA*dA*dA*dT*dA*dG*dG*dT*kG*kA*kG) [Compound 1076491]"
assigned_category = "No"

[[record]]
substance = "1074347 (antisense kG*kT*kT*dA*dA*dG*dG*dA*dA*dA*dG*dG*dA*kT*k[5mC]*kT) [Compound 1074347]"
assigned_category = "Yes"

[[record]]
substance = "1074827 (kT*kA*kA*dA*dA*dT*d[5mC]*d[5mC]*dA*d[5mC]*d[5mC]*dT*dG*kA*kG*k[5mC]; antisense) [Compound 1074827]"
assigned_category = "Yes"

[[record]]
substance = "1075755 (kA*k[5mC]*kT*dT*dA*dA*dA*dT*dG*dG*d[5mC]*dA*d[5mC]*kA*kG*kT; antisense) [Compound 1075755]"
assigned_category = "Yes"


Note: attention shifts to another entry.
Would you say 1075883 (kA*k[5mC]*kT*dA*dA*dA*dA*d[5mC]*d[5mC]*dA*dT*dT*dT*kG*k[5mC]*k[5mC]; antisense) [Compound 1075883] shows YAP1 (% UTC) at minimum 30 % UTC?
No

* * *

System: Yap1 mRNA
assay name: Antisense inhibition of human Yap1 in A-431 cells by cEt gapmers, single dose (Example 3, RTS36584)
Type: cell-based
condition label: Table 12; A-431 cells, 5,000 cells per well, free uptake, 2,000 nM modified oligonucleotide, approx. 48 hours; RTS36584; normalized to RIBOGREEN; Yap1 mRNA relative to untreated control cells
Strand notation (5' to 3'): a small letter for the sugar, then the base; units joined by * are phosphorothioate-linked, units joined directly phosphodiester-linked; [ ] holds rarer units or linkages, { } end groups; capitals alone tell only the bases. k = constrained ethyl (cEt); [5mC] = 5-methylcytosine; d = 2'-deoxy (DNA)
Attribute: YAP1 (% UTC)
Write down the numeric answer in % UTC and omit the unit.

# count of solved cases: 2
[[record]]
substance = "958779 (antisense kT*k[5mC]*kG*dA*dA*dT*dA*dT*dA*dG*dA*dG*dG*k[5mC]*k[5mC]*kT) [Compound 958779]"
target_desc = "Yap1 mRNA"
units_text = "% UTC"
recorded_measurement = 80

[[record]]
substance = "958639 (antisense kG*kT*kT*dA*dT*dG*dG*dG*dT*dG*d[5mC]*dT*dT*kT*kT*k[5mC]) [Compound 958639]"
target_desc = "Yap1 mRNA"
units_text = "% UTC"
recorded_measurement = 18


The reported YAP1 (% UTC) of the substance 715483 (antisense k[5mC]*kT*k[5mC]*dT*dT*dT*dG*dG*dA*dA*dA*d[5mC]*d[5mC]*kA*kT*kT) [Compound 715483] was 1

The reported YAP1 (% UTC) of the substance 958819 (kT*kG*k[5mC]*dT*dT*d[5mC]*dA*dA*d[5mC]*dA*dT*dT*dG*kT*kT*k[5mC]; antisense) [Compound 958819] was 9

* * *

Test system: Yap1 mRNA
assay name: Antisense inhibition of human Yap1 in SNU-449 cells by modified oligonucleotides, single dose (Example 5, RTS36584)
Assay type: cell-based
condition label: Table 41; SNU-449 cells, 10,000 cells per well, free uptake, 2,000 nM modified oligonucleotide, approximately 48 hours; RTS36584; normalized to RIBOGREEN; Yap1 mRNA relative to untreated control cells
Strand notation (5' to 3'): a small letter for the sugar, then the base; units joined by * are phosphorothioate-linked, units joined directly phosphodiester-linked; [ ] holds rarer units or linkages, { } end groups; capitals alone tell only the bases. e = 2'-O-(2-methoxyethyl) (MOE); k = constrained ethyl (cEt); [5mC] = 5-methylcytosine; d = 2'-deoxy (DNA)
Outcome: Condition met for YAP1 (% UTC) of at least 30 % UTC; Condition not met for anything lower.

Worked set:
[[record]]
substance = "1198670 (antisense kT*kT*dA*dG*dG*dA*dT*dG*d[5mC]*dA*dT*dG*kG*eT*kT*eT) [Compound 1198670]"
assigned_category = "Condition met"

[[record]]
substance = "1198632 (kG*kA*dA*dA*dT*dT*dG*dT*d[5mC]*dT*d[5mC]*dA*kT*eG*k[5mC]*e[5mC]; antisense) [Compound 1198632]"
assigned_category = "Condition not met"

[[record]]
substance = "1198635 (kA*kT*dG*dG*dA*dA*dA*dT*dT*dG*dT*d[5mC]*kT*e[5mC]*kA*eT; antisense) [Compound 1198635]"
assigned_category = "Condition met"

[[record]]
substance = "1198735 (kG*eA*kG*dG*dT*dA*dT*dA*dA*d[5mC]*dT*dG*eG*eG*k[5mC]*kA; antisense) [Compound 1198735]"
assigned_category = "Condition met"

[[record]]
substance = "1198660 (antisense kG*kG*dA*dA*dG*dA*dT*d[5mC]*dT*dG*dA*dA*kA*e[5mC]*kT*e[5mC]) [Compound 1198660]"
assigned_category = "Condition met"

[[record]]
substance = "1198737 (k[5mC]*eT*kG*dA*dG*dG*dT*dA*dT*dA*dA*d[5mC]*eT*eG*kG*kG; antisense) [Compound 1198737]"
assigned_category = "Condition not met"

[[record]]
substance = "1198786 (antisense kT*eG*kT*dA*dT*dG*dT*d[5mC]*dA*dG*dA*dA*eG*eA*kG*kT) [Compound 1198786]"
assigned_category = "Condition not met"

[[record]]
substance = "715487 (antisense kA*kT*kT*dA*d[5mC]*dT*dT*d[5mC]*dA*dT*dA*dG*d[5mC]*kT*kT*kA) [Compound 715487]"
assigned_category = "Condition not met"

[[record]]
substance = "1198690 (antisense kT*kA*dA*dT*dA*dT*dT*dG*d[5mC]*dA*dA*dT*k[5mC]*eT*kG*eT) [Compound 1198690]"
assigned_category = "Condition met"

[[record]]
substance = "1198733 (kG*eG*kT*dA*dT*dA*dA*d[5mC]*dT*dG*dG*dG*e[5mC]*eA*kA*kA; antisense) [Compound 1198733]"
assigned_category = "Condition met"


Would you say 1198676 (antisense kT*k[5mC]*dA*dG*dA*dT*dT*dT*dA*dG*dG*dA*kT*eG*k[5mC]*eA) [Compound 1198676] shows YAP1 (% UTC) at minimum 30 % UTC?
Condition met

Would you say 1198688 (antisense kA*kT*dA*dT*dT*dG*d[5mC]*dA*dA*dT*d[5mC]*dT*kG*eT*k[5mC]*eT) [Compound 1198688] shows YAP1 (% UTC) at minimum 30 % UTC?
Condition met

Would you say 1198661 (antisense kT*kT*dG*dG*dA*dA*dG*dA*dT*d[5mC]*dT*dG*kA*eA*kA*e[5mC]) [Compound 1198661] shows YAP1 (% UTC) at minimum 30 % UTC?
Condition met
